Recorded values, source paper PMC5250654.

experiment: clinical; settings: human, in vivo, po, 600 mg
measured.attribute: Tmax (h)

structure_smiles=c1cn2cc(-c3ccc4cn[nH]c4c3)nc(Nc3ccc(N4CCOCC4)cc3)c2n1 measured_attribute=Tmax measured_number=2

---

assay: clinical; settings: human, in vivo, po
measured.attribute: half-life

structure_smiles=c1cn2cc(-c3ccc4cn[nH]c4c3)nc(Nc3ccc(N4CCOCC4)cc3)c2n1 measured_attribute=half-life result="~9 h"

---

assay: clinical; conditions: human, in vivo, po, 1200 mg, t ½, Day 7 (steady state), 1200 mg twice daily oral, fasted; median (interquartile range)
measured.attribute: half-life (h)

structure_smiles=c1cn2cc(-c3ccc4cn[nH]c4c3)nc(Nc3ccc(N4CCOCC4)cc3)c2n1 units_symbol=h measured_number=13.9
